Readings of ALBUMIN for the listed compounds
# Species on record: Rattus norvegicus
# assay_procedure: DrugMatrix - Regimen: Daily Repeat
# Format: toxicity, organism-based, Sprague-Dawley
# Set-up: regimen Daily Repeat, gender Male, age 6-8 weeks
# reported_conditions: in vivo, po, 0 mg/kg, 120 h, tissue Plasma, route oral GAVAGE, dose level Control, time 5 day, vehicle 100 % WATER
# number only, unit G/DL dropped from output

Sample answers from the record:
Would you mind telling me what ALBUMIN value was observed for NCC1(CC(=O)O)CCCCC1 ?
4.3

Would you mind telling me what ALBUMIN value was observed for NNC(=O)c1ccncc1 ?
4.32

Next:
Would you mind telling me what ALBUMIN value was observed for Nc1ccc(S(=O)(=O)Nc2ccnn2-c2ccccc2)cc1 ?
4.3

Would you mind telling me what ALBUMIN value was observed for Clc1ccc(C(c2ccccc2Cl)C(Cl)Cl)cc1 (stereo unspecified) ?
4.08

Would you mind telling me what ALBUMIN value was observed for COc1cccc(C2(O)CCCCC2CN(C)C)c1 (stereo unspecified) ?
3.97

Would you mind telling me what ALBUMIN value was observed for CN1CCC[C@H]1c1cccnc1 ?
4.08

* * *

Readings of CHLORIDE for the listed molecules
# Species on record: Rattus norvegicus
# assay_procedure: DrugMatrix - Regimen: Daily Repeat
# Assay type: toxicity, organism-based, Sprague-Dawley
# Design: regimen Daily Repeat, gender Male, age 6-8 weeks
# reported_conditions: in vivo, po, 0 mg/kg, 120 h, tissue Plasma, route oral GAVAGE, dose level Control, time 5 day, […]
# number only, unit MEQ/L dropped from output

Would you mind telling me what CHLORIDE value was observed for COc1ccc2c(c1)c(CC(=O)OCC(=O)O)c(C)n2C(=O)c1ccc(Cl)cc1 ?
102.67

Would you mind telling me what CHLORIDE value was observed for COC1=CC(=O)C[C@@H](C)[C@]12Oc1c(Cl)c(OC)cc(OC)c1C2=O ?
104.33

Would you mind telling me what CHLORIDE value was observed for CC(C)n1c(/C=C/C(O)CC(O)CC(=O)O)c(-c2ccc(F)cc2)c2ccccc21 (stereo not given) ?
98.5

Would you mind telling me what CHLORIDE value was observed for CCCC[C@@H](CC)COC(=O)c1ccccc1C(=O)OC[C@@H](CC)CCCC [BIS(2-ETHYLHEXYL)PHTHALATE] ?
98.67

Would you mind telling me what CHLORIDE value was observed for C=CCN ?
104

* * *

# Species on record: Rattus norvegicus
# assay_procedure: DrugMatrix - Regimen: Daily Repeat
# Type: toxicity, organism-based, Sprague-Dawley
# Design: regimen Daily Repeat, gender Male, age 6-8 weeks
# reported_conditions: in vivo, po, 10 mg/kg, 120 h, tissue Plasma, route oral GAVAGE, dose level Low, time 5 day, vehicle .5 % CMC
measured_property: ALANINE AMINOTRANSFERASE (u/L)
# number only, unit u/L dropped from output

Would you mind telling me what ALANINE AMINOTRANSFERASE value was observed for O=C1CN=C(c2ccccc2)c2cc([N+](=O)[O-])ccc2N1 ?
43.67

Would you mind telling me what ALANINE AMINOTRANSFERASE value was observed for COc1c(C)c2c(c(O)c1C/C=C(\C)CCC(=O)OCCN1CCOCC1)C(=O)OC2 [MYCOPHENOLATE MOFETIL] ?
55.67

Would you mind telling me what ALANINE AMINOTRANSFERASE value was observed for CC(=O)O[C@]1(C(C)=O)CC[C@H]2[C@@H]3C=C(Cl)C4=CC(=O)CC[C@]4(C)[C@H]3CC[C@@]21C [CHLORMADINONE ACETATE] ?
54.33

Next:
Would you mind telling me what ALANINE AMINOTRANSFERASE value was observed for NS(=O)(=O)c1cc2c(cc1Cl)NCNS2(=O)=O [HYDROCHLOROTHIAZIDE] ?
46

* * *

# Species on record: Rattus norvegicus
# assay_procedure: DrugMatrix - Regimen: Daily Repeat
# Type: toxicity, organism-based, Sprague-Dawley
# Set-up: regimen Daily Repeat, gender Male, age 6-8 weeks
# reported_conditions: in vivo, po, 0 mg/kg, 72 h, tissue Plasma, route oral GAVAGE, dose level Control, time 3 day, vehicle .5 % CMC
measured_property: CREATININE (mg/dL)
# number only, unit mg/dL dropped from output

Sample answers from the record:
Would you mind telling me what CREATININE value was observed for Cc1c(-c2ccccc2)oc2c(C(=O)OCCN3CCCCC3)cccc2c1=O [FLAVOXATE] ?
0.19

Would you mind telling me what CREATININE value was observed for CCc1ccc(C(=O)C(C)CN2CCCCC2)cc1 (stereo not drawn) [EPERISONE] ?
0.21

Would you mind telling me what CREATININE value was observed for C[C@]12CCC(=O)C=C1CC[C@@H]1[C@@H]2C(=O)C[C@@]2(C)[C@H]1CC[C@]2(O)C(=O)CO [CORTISONE] ?
0.55

Would you mind telling me what CREATININE value was observed for C=C1CC[C@H](O)C/C1=C/C=C1\CCC[C@]2(C)[C@@H]([C@H](C)/C=C/[C@H](C)C(C)C)CC[C@@H]12 [ERGOCALCIFEROL] ?
0.22

Would you mind telling me what CREATININE value was observed for CCOC(=O)OC(C)OC1=C(C(=O)Nc2ccccn2)N(C)S(=O)(=O)c2ccccc21 (stereo not drawn) [AMPIROXICAM] ?
0.25

Would you mind telling me what CREATININE value was observed for CN1CCC[C@@H]1CCO[C@](C)(c1ccccc1)c1ccc(Cl)cc1 [CLEMASTINE] ?
0.18

Would you mind telling me what CREATININE value was observed for COC(=O)c1ccc(O)cc1 [METHYLPARABEN] ?
0.14

Moving on to the next molecule.
Would you mind telling me what CREATININE value was observed for CCC[C@@H]1C[C@@H](C(=O)N[C@@H]([C@H]2O[C@H](SC)[C@H](O)[C@@H](O)[C@H]2O)[C@@H](C)O)N(C)C1 [LINCOMYCIN] ?
0.18

* * *

# Species on record: Rattus norvegicus
# assay_procedure: DrugMatrix - Regimen: Daily Repeat
# Assay type: toxicity, organism-based, Sprague-Dawley
# Design: regimen Daily Repeat, gender Male, age 6-8 weeks
# reported_conditions: in vivo, ip, 8 mg/kg, […], tissue Blood, route intraperitoneal, dose level High, time 14 day, vehicle 100 % SALINE
measured_property: ABSOLUTE EOSINOPHIL
Remember to put the unit after the number in your answer.

Would you mind telling me what ABSOLUTE EOSINOPHIL value was observed for GOLD SODIUM THIOMALATE ?
82 cells/µL

* * *

# Species: Rattus norvegicus
# assay_procedure: DrugMatrix - Regimen: Daily Repeat
# Assay type: toxicity, organism-based, Sprague-Dawley
# Design: regimen Daily Repeat, gender Male, age 6-8 weeks
# reported_conditions: in vivo, po, 0 mg/kg, 120 h, tissue Blood, route oral GAVAGE, dose level Control, time 5 day, vehicle 100 % WATER
measured_property: MEAN CORPUSCULAR HEMOGLOBIN CONCENTRATION (G/DL)
# number only, unit G/DL dropped from output

Sample answers from the record:
Would you mind telling me what MEAN CORPUSCULAR HEMOGLOBIN CONCENTRATION value was observed for CC1COc2c(N3CCN(C)CC3)c(F)cc3c(=O)c(C(=O)O)cn1c23 (stereo not given) ?
39.88

Would you mind telling me what MEAN CORPUSCULAR HEMOGLOBIN CONCENTRATION value was observed for CN1CCC[C@H]1c1cccnc1 ?
39.88

Would you mind telling me what MEAN CORPUSCULAR HEMOGLOBIN CONCENTRATION value was observed for O=C1NC(=O)C(c2ccccc2)(c2ccccc2)N1 ?
40.08

Would you mind telling me what MEAN CORPUSCULAR HEMOGLOBIN CONCENTRATION value was observed for Cn1cnc([N+](=O)[O-])c1Sc1ncnc2nc[nH]c12 ?
39.53

Moving on to the next molecule.
Would you mind telling me what MEAN CORPUSCULAR HEMOGLOBIN CONCENTRATION value was observed for C[C@]12Cc3c[nH]nc3C[C@@H]1CC[C@@H]1[C@@H]2CC[C@@]2(C)[C@H]1CC[C@]2(C)O ?
39.33

* * *

Readings of SODIUM for the listed compounds
# Species: Rattus norvegicus
# assay_procedure: DrugMatrix - Regimen: Daily Repeat
# Assay type: toxicity, organism-based, Sprague-Dawley
# Parameters: regimen Daily Repeat, gender Male, age 6-8 weeks
# reported_conditions: in vivo, po, 1500 mg/kg, 72 h, tissue Plasma, route oral GAVAGE, dose level High, time 3 day, vehicle .5 % CMC

Sample answers from the record:
Would you mind telling me what SODIUM value was observed for COC(=O)c1ccc(O)cc1 ?
141.63 MEQ/L

Would you mind telling me what SODIUM value was observed for CCOC(=O)[C@H](CCc1ccccc1)N[C@@H](C)C(=O)N1[C@H](C(=O)O)C[C@@H]2CCC[C@@H]21 ?
143.5 MEQ/L

Would you mind telling me what SODIUM value was observed for NS(=O)(=O)c1cc2c(cc1Cl)NCNS2(=O)=O [HYDROCHLOROTHIAZIDE] ?
141.57 MEQ/L

Moving on to the next compound.
Would you mind telling me what SODIUM value was observed for O=C1CCc2cc(OCCCCc3nnnn3C3CCCCC3)ccc2N1 ?
140.33 MEQ/L
